Tested on: S. cerevisiae Mot1-301 ts growth rescue, BacTiter-Glo ATP luminescence
ASSAY OVERVIEW: restored Mot1-301 yeast growth at 38.5C – whole organism, S. cerevisiae, Mot1-301 ts mutant, luminescence, dose retest, SUMOylation pathway inhibitor project, confirmation (AID 463204);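 further: growth at restrictive 38.5 degrees C of Mot1-301 OY566 strain; actives raise luminescence by restoring growth of the ts mutant at high temperature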
The source made the active and inactive calls.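 How the source made its calls: active means AC50 no more than ten times the top concentration tested, that is within one log above it; inconclusive means flat curve fit with activity between 30% and 70%, or invalid poor fit; inactive means AC50 beyond ten times the top tested dose.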
Respond with a class label; see 1 (active), -1 (inactive)

The following molecules have reported results that may help.
* COc1cccc(/C=N/NC(=O)CCn2cnc3ccccc32)c1 | -1
* COc1ccc(NC(=O)C(c2ccccc2)N2CCN(c3ccccn3)CC2)cc1Cl (stereo not drawn) | -1
* COc1ccc(CCC(=O)NNC(=S)Nc2cccc(C(C)=O)c2)cc1 | -1
* COc1ccc(NC(=O)Cn2nnc(C(=O)Nc3ccc(F)c(Cl)c3)c2N)cc1 | -1
* CN(c1ccccc1)S(=O)(=O)c1ccc(C(=O)NCC2CCCO2)cc1 (stereo not drawn) | -1

Input line: What was the test verdict on `O=C(Nc1ccc(OC(F)(F)F)cc1)c1ccc2ccccc2n1` ?
Output line: -1

Input line: What was the test verdict on `COc1ccc2cc(C#N)c(Nc3cccc(F)c3)nc2c1` ?
Output line: -1

Input line: What was the test verdict on `COc1ccc(/C=C2/SC(=O)N(NS(=O)(=O)c3ccccc3)C2=S)cc1OC` ?
Output line: -1

Input line: What was the test verdict on O=C(C1CCN(C2CC(=O)N(c3cccc(Cl)c3)C2=O)CC1)N1CCCC1 (stereo not drawn) ?
Output line: 1

Input line: What was the test verdict on O=C1NC(c2ccccc2)C(C(=O)c2cccs2)C(O)(C(F)(F)F)N1 (stereo not drawn) ?
Output line: -1

---

Test system: S. cerevisiae Mot1-301 ts growth rescue, BacTiter-Glo ATP luminescence
ASSAY OVERVIEW: restored Mot1-301 yeast growth at 38.5C – whole organism, S. cerevisiae, Mot1-301 ts mutant, luminescence, dose retest, SUMOylation pathway inhibitor project, confirmation (AID 463204)
The source made the active and inactive calls.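 The calls were made as follows: active = AC50 no more than ten times the top concentration tested, that is within one log above it; inconclusive = flat curve fit with activity between 30% and 70%, or invalid poor fit; inactive = AC50 beyond ten times the top tested dose.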
Respond with a class label; see active, inactive

- Cc1ccccc1NC1=NCCCS1: inactive
- CCOc1ccc(-c2nc(C#N)c(N3CCOCC3)o2)cc1: inactive

Input line: What was the test verdict on CC1CCCCC1N=CC1=C(O)CC(C)(C)CC1=O (centres undefined) ?
Output line: inactive

Input line: What was the test verdict on `COc1ccc(/C=N/NC(=O)c2c(C)nc3ccccn23)cc1[N+](=O)[O-]` ?
Output line: inactive

Input line: What was the test verdict on CCCCNC(=O)C1C2C=CC3(CN(Cc4ccc(C)cc4)C(=O)C13)O2 (centres undefined) ?
Output line: inactive

Input line: What was the test verdict on `Cc1ccc(SCCNC(=O)CN2C(=O)c3ccccc3S2(=O)=O)cc1` ?
Output line: inactive

Input line: What was the test verdict on `CCN(CC)c1nc(Nc2ccc(Cl)cc2)nc(OCC#N)n1` ?
Output line: inactive

Input line: What was the test verdict on `CCN(CC)CCCn1c(=S)[nH]c2ccc(Cl)cc2c1=O` ?
Output line: inactive

---

System: S. cerevisiae Mot1-301 ts growth rescue, BacTiter-Glo ATP luminescence
ASSAY OVERVIEW: restored Mot1-301 yeast growth at 38.5C – whole organism, S. cerevisiae, Mot1-301 ts mutant, luminescence, dose retest, SUMOylation pathway inhibitor project, confirmation (AID 463204)
Activity calls are given as the source filed them.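 How the source made its calls: active means AC50 no more than ten times the top concentration tested, that is within one log above it; inconclusive means flat curve fit with activity between 30% and 70%, or invalid poor fit; inactive means AC50 beyond ten times the top tested dose.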
MEASUREMENT TYPE: AC50

# count of solved cases: 4
• CCOc1ccc(C(=O)Nc2ccc(CN3CCOCC3)cc2)cc1Br = > 21 µM (inactive)
• CC(C)(C)NC(=O)CC1C(=O)NCCN1Cc1c(F)cccc1Cl (stereo not given) = > 42 µM (inactive)
• COc1ccc(C(=O)O/N=C(\N)c2ccccc2)cc1OC = > 42 µM (inactive)
• O=C(c1cc(N2C(=O)C3C4CCC(C4)C3C2=O)ccc1Cl)N1CCN(c2ccccc2)CC1 (stereo not given) = > 42 µM (inactive)

Sample `CC[n+]1c(/C=C/N(C)c2ccccc2)n(-c2ccccc2)c2ccc(-c3nc4ccccc4s3)cc21` ; AC50 observed: 19.6 µM

Sample `Cc1nc2ccccc2c(=O)n1CC(=O)N1CCOCC1` ; AC50 observed: > 42 µM (inactive)

---

Tested on: S. cerevisiae Mot1-301 ts growth rescue, BacTiter-Glo ATP luminescence
ASSAY OVERVIEW: restored Mot1-301 yeast growth at 38.5C – whole organism, S. cerevisiae, Mot1-301 ts mutant, luminescence, dose retest, SUMOylation pathway inhibitor project, confirmation (AID 463204);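 further: growth at restrictive 38.5 degrees C of Mot1-301 OY566 strain; actives raise luminescence by restoring growth of the ts mutant at high temperature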
The source made the active and inactive calls.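 How the source made its calls: active means AC50 no more than ten times the top concentration tested, that is within one log above it; inconclusive means flat curve fit with activity between 30% and 70%, or invalid poor fit; inactive means AC50 beyond ten times the top tested dose.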
Respond with a class label; see active, inactive

The following compounds have reported results that may help.
• CS(=O)(=O)c1ccc(Cl)c(C(=O)O)c1 = inactive
• O=C1c2cc(N3CCCC3)c([N+](=O)[O-])cc2C(=O)N1c1ccccc1 = inactive
• Cc1ccc2c(C)c(C(=O)N(C)C(C)c3ccncn3)oc2c1C (stereo not drawn) = inactive

Input line: What was the test verdict on `COC(=O)c1ccccc1N(C)S(C)(=O)=O` ?
Output line: inactive

Input line: What was the test verdict on `O=C1c2ccccc2S(=O)(=O)N1Cc1cc(=O)n2ccsc2n1` ?
Output line: inactive

Input line: What was the test verdict on `Cc1c(Cl)c([N+](=O)[O-])nn1CC(=O)NC12CC3CC(CC(C3)C1)C2` ?
Output line: inactive

Input line: What was the test verdict on `C/C(=N\N=C(c1ccccc1)c1ccccc1)c1ccco1` ?
Output line: inactive

Input line: What was the test verdict on `Cc1nn(CCOc2ccccc2)c(=O)n1-c1ccccc1F` ?
Output line: inactive

Input line: What was the test verdict on Cc1nc2sc(C(c3ccco3)N3CCOCC3)c(O)n2n1 (stereo not drawn) ?
Output line: inactive

Input line: What was the test verdict on `CCCCC(=O)Nc1nnc(/C=C/c2ccc(OC)cc2)s1` ?
Output line: inactive

Input line: What was the test verdict on `Cc1cccc(NC(=S)NCc2ccco2)c1C` ?
Output line: inactive

Input line: What was the test verdict on `C/C(CC(=O)NC1CCCCC1)=N\NC(=O)Cc1ccc(-c2ccccc2)cc1` ?
Output line: inactive

---

Tested on: S. cerevisiae Mot1-301 ts growth rescue, BacTiter-Glo ATP luminescence
ASSAY OVERVIEW: restored Mot1-301 yeast growth at 38.5C – whole organism, S. cerevisiae, Mot1-301 ts mutant, luminescence, dose retest, SUMOylation pathway inhibitor project, confirmation (AID 463204);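 further: growth at restrictive 38.5 degrees C of Mot1-301 OY566 strain; actives raise luminescence by restoring growth of the ts mutant at high temperature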
Active and inactive are the calls of the source.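 How the source made its calls: active means AC50 no more than ten times the top concentration tested, that is within one log above it; inconclusive means flat curve fit with activity between 30% and 70%, or invalid poor fit; inactive means AC50 beyond ten times the top tested dose.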
Respond with a class label; see TRUE (active), FALSE (inactive)

• COCCCNC(=O)c1cc2cc([N+](=O)[O-])cc(OC)c2oc1=O = FALSE
• CC(=O)N1CCN(CC(O)COc2ccc(OCc3ccccc3)cc2)CC1 (centres undefined) = FALSE
• Fc1ccc(-c2nnc3ccc(N4CCCC4)nn23)cc1 = FALSE
• COc1ccccc1CNC(=O)CN(c1ccc(C)cc1)S(=O)(=O)c1c(C)n[nH]c1C = FALSE
• COc1ccc(OCCC(=O)c2ccc(OC)cc2)cc1 = FALSE

Now turn to the next molecule.
Input line: What was the test verdict on CNC(=O)c1ccccc1S(=O)c1ccccc1COC(C)=O (centres undefined) ?
Output line: FALSE

---

System: S. cerevisiae Mot1-301 ts growth rescue, BacTiter-Glo ATP luminescence
ASSAY OVERVIEW: restored Mot1-301 yeast growth at 38.5C – whole organism, S. cerevisiae, Mot1-301 ts mutant, luminescence, dose retest, SUMOylation pathway inhibitor project, confirmation (AID 463204);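 further: growth at restrictive 38.5 degrees C of Mot1-301 OY566 strain; actives raise luminescence by restoring growth of the ts mutant at high temperature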
Active and inactive are the calls of the source.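 How the source made its calls: active means AC50 no more than ten times the top concentration tested, that is within one log above it; inconclusive means flat curve fit with activity between 30% and 70%, or invalid poor fit; inactive means AC50 beyond ten times the top tested dose.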
Recorded AC50 for the following molecules

# count of solved cases: 5
* CCc1ccccc1NC1c2ccccc2C(=O)N1c1cccnc1 (stereo unspecified) | > 42 µM (inactive)
* CC(=O)N(C)c1ccc(N2CCOCC2)c2c1C(=O)c1ccccc1C2=O | > 42 µM (inactive)
* COc1ccc(NC(=O)C2CCCN2S(=O)(=O)c2cccc3cccnc23)cc1OC (stereo unspecified) | > 42 µM (inactive)
* O=C(CSc1nnc(CNC(=O)c2ccco2)o1)Nc1nc2ccccc2s1 | > 42 µM (inactive)
* Cc1ccc2nc(NC(=O)CNS(=O)(=O)c3ccc(Br)s3)sc2c1 | > 42 µM (inactive)

AC50 on S. cerevisiae Mot1-301 ts growth rescue, BacTiter-Glo ATP luminescence for `O=S(=O)(Cc1ccccc1)N1CCN(c2ncccn2)CC1` is > 42 µM (inactive)

AC50 on S. cerevisiae Mot1-301 ts growth rescue, BacTiter-Glo ATP luminescence for `CCC(=O)Nc1nc(CC(=O)Nc2ccccc2OC)cs1` is > 42 µM (inactive)

AC50 on S. cerevisiae Mot1-301 ts growth rescue, BacTiter-Glo ATP luminescence for `CCOC(=O)CCN(c1ccccc1)S(=O)(=O)c1ccc(-c2ccc(=O)[nH]n2)s1` is > 42 µM (inactive)

AC50 on S. cerevisiae Mot1-301 ts growth rescue, BacTiter-Glo ATP luminescence for `CCCCSCCCNC(=O)Nc1cccc(OC)c1` is > 42 µM (inactive)

AC50 on S. cerevisiae Mot1-301 ts growth rescue, BacTiter-Glo ATP luminescence for CCC(C)(C)NC(=O)C(c1ccc(C)cc1)N(CC1CCCO1)C(=O)CNC(=O)c1cccs1 (stereo unspecified) is > 42 µM (inactive)

AC50 on S. cerevisiae Mot1-301 ts growth rescue, BacTiter-Glo ATP luminescence for COc1ccc(NC2CCCN(C(=O)c3csc(C)n3)C2)cc1 (stereo unspecified) is > 42 µM (inactive)

All values here come from PubChem BioAssay AID463204.
